Just for reference, patent US20200188475A1 is where these values come from.

system: 4E10 antibody; assay: SPR (BIAcore) 4E10 binding to MPER variant or spin-labeled peptides on liposomes; settings: mutation of N671 to residues occurring in other viral strains
ENDPOINT: decrease of 4E10 binding to the lipid-embedded MPER

SUBSTANCE	RECORDED RESULT
N671T: HXB2 MPER single amino acid variant, N671 to T (ELDKWASLWTWFNITNWLWYIK)	severely
N671D: HXB2 MPER single amino acid variant, N671 to D (ELDKWASLWDWFNITNWLWYIK)	severely
N671G: HXB2 MPER single amino acid variant, N671 to G (ELDKWASLWGWFNITNWLWYIK)	severely
